Origin of measurements: ChEMBL document CHEMBL3091351

- assay info: Displacement of [3H]epibatidine from (alpha1)2beta1gammadelta nAChR in Torpedo californica electroplax after 90 mins by liquid scintillation counting analysis
- Set-up: species or system Tetronarce californica
readout: Ki

- O=C(c1ccccc1[N+](=O)[O-])N1C[C@@H]2CNC[C@@H](C2)C1: > 10 µM
- O=C(C1CCCCC1)N1C[C@@H]2CNC[C@@H](C2)C1: > 10 µM
- O=C(c1cccc(F)c1)N1C[C@@H]2CNC[C@@H](C2)C1: > 10 µM
- O=C(c1ccc([N+](=O)[O-])cc1)N1C[C@@H]2CNC[C@@H](C2)C1: > 5 µM
- CCCC(=O)N1C[C@@H]2CNC[C@@H](C2)C1: > 5 µM
- O=C(c1cncc(Br)c1)N1C[C@@H]2CNC[C@@H](C2)C1: > 10 µM
- CCC(=O)N1C[C@@H]2CNC[C@@H](C2)C1: > 1 µM
- COc1ccc(C(=O)N2C[C@@H]3CNC[C@@H](C3)C2)c(OC)c1: > 10 µM
- Cc1ccc(C(=O)N2C[C@@H]3CNC[C@@H](C3)C2)cc1: > 10 µM
- O=[N+]([O-])c1ccc(S(=O)(=O)N2C[C@@H]3CNC[C@@H](C3)C2)cc1: > 10 µM

====

- assay info: Displacement of [3H]epibatidine from alpha3beta4 nAChR in calf adrenal membranes fraction after 90 mins by liquid scintillation counting analysis
- Format: cell membranes, Bos taurus
pKi: −log10 of the molar value.
readout: pKi

- O=C(c1cccnc1)N1C[C@@H]2CNC[C@@H](C2)C1: < 5.00
- O=C(c1ccc2ccccc2c1)N1C[C@@H]2CNC[C@@H](C2)C1: < 5.00
- C1NCC2CNCC1C2: < 6.00
- O=C(c1ccc([N+](=O)[O-])cc1)N1C[C@@H]2CNC[C@@H](C2)C1: 5.38
- O=C(c1ccc(F)cc1)N1C[C@@H]2CNC[C@@H](C2)C1: < 5.00
- O=C(c1ccccc1)N1C[C@@H]2CNC[C@@H](C2)C1: < 5.30
- CC(C)(C)c1ccc(C(=O)N2C[C@@H]3CNC[C@@H](C3)C2)cc1: < 5.00
- COc1ccc(C(=O)N2C[C@@H]3CNC[C@@H](C3)C2)c(OC)c1: < 5.30
- O=C(c1cncc(Br)c1)N1C[C@@H]2CNC[C@@H](C2)C1: < 5.30
- Cc1ccccc1C(=O)N1C[C@@H]2CNC[C@@H](C2)C1: < 5.00
- O=C(c1cnccn1)N1C[C@@H]2CNC[C@@H](C2)C1: < 5.00
- O=C(C1CCCCC1)N1C[C@@H]2CNC[C@@H](C2)C1: < 5.30
- O=S(=O)(c1ccccc1)N1C[C@@H]2CNC[C@@H](C2)C1: < 5.00
- O=C(c1cccc(C(F)(F)F)c1)N1C[C@@H]2CNC[C@@H](C2)C1: < 5.52
- Cc1ccc(S(=O)(=O)N2C[C@@H]3CNC[C@@H](C3)C2)cc1: < 5.00

====

- measured on: Neuronal acetylcholine receptor subunit alpha-7 (Rattus norvegicus)
- Sequence (Q05941 whole entry): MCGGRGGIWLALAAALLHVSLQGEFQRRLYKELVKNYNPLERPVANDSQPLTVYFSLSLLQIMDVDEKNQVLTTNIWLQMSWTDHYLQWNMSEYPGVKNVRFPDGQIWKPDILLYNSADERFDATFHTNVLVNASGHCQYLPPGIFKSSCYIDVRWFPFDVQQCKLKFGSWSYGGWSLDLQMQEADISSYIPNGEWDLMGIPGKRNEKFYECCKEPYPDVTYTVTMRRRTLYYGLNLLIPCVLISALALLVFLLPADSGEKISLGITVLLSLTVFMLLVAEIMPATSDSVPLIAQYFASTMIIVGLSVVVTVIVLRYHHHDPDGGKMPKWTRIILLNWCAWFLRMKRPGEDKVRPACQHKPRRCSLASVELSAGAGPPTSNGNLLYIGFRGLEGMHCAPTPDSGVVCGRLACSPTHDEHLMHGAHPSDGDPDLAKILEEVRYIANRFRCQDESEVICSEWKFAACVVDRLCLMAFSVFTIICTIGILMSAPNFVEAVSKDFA
- assay info: Displacement of [3H]methyllycaconitine from alpha7 nAChR in Sprague-Dawley rat forebrain P2 fraction after 90 mins by liquid scintillation counting analysis
pKi: −log10 of the molar value.
pKi values for the compounds below.
readout: pKi

• O=C(C1CCCCC1)N1C[C@@H]2CNC[C@@H](C2)C1 = < 5.00
• O=C(c1cc2ccccc2[nH]1)N1C[C@@H]2CNC[C@@H](C2)C1 = < 5.00
• O=C(c1ccc(Br)cc1)N1C[C@@H]2CNC[C@@H](C2)C1 = < 5.00
• CC(C)C(=O)N1C[C@@H]2CNC[C@@H](C2)C1 = < 5.30
• O=S(=O)(c1ccccc1)N1C[C@@H]2CNC[C@@H](C2)C1 = < 5.00
• O=C(c1cccc([N+](=O)[O-])c1)N1C[C@@H]2CNC[C@@H](C2)C1 = < 5.00
• CC(=O)N1C[C@@H]2CNC[C@@H](C2)C1 = 6.20
• O=C(c1cncc(Br)c1)N1C[C@@H]2CNC[C@@H](C2)C1 = < 5.00
• N#Cc1ccc(C(=O)N2C[C@@H]3CNC[C@@H](C3)C2)cc1 = < 5.00
• O=C(c1cccnc1)N1C[C@@H]2CNC[C@@H](C2)C1 = < 5.00
• CC(C)(C)c1ccc(C(=O)N2C[C@@H]3CNC[C@@H](C3)C2)cc1 = < 5.00
• Cc1ccccc1C(=O)N1C[C@@H]2CNC[C@@H](C2)C1 = < 5.00
• O=C(c1ccc(F)cc1)N1C[C@@H]2CNC[C@@H](C2)C1 = < 5.00
• O=C(c1ccc(O)cc1)N1C[C@@H]2CNC[C@@H](C2)C1 = < 6.00
• O=C(c1cnccn1)N1C[C@@H]2CNC[C@@H](C2)C1 = < 5.00
• O=C(c1c[nH]c2ccccc12)N1C[C@@H]2CNC[C@@H](C2)C1 = < 5.00
• O=C(N1CCCC1)N1C[C@@H]2CNC[C@@H](C2)C1 = < 5.00
• O=C(c1ccccc1)N1C[C@@H]2CNC[C@@H](C2)C1 = < 5.00
• CC(C)(C)OC(=O)N1C[C@@H]2CNC[C@@H](C2)C1 = < 5.30
• O=C(c1cccc2ccccc12)N1C[C@@H]2CNC[C@@H](C2)C1 = < 5.00
• O=C(c1ccc(Cl)cc1)N1C[C@@H]2CNC[C@@H](C2)C1 = < 5.00
• Cc1ccc(S(=O)(=O)N2C[C@@H]3CNC[C@@H](C3)C2)cc1 = < 5.00
• CCCC(=O)N1C[C@@H]2CNC[C@@H](C2)C1 = < 6.00
• C1NCC2CNCC1C2 = < 6.00
• O=C(c1ccccc1[N+](=O)[O-])N1C[C@@H]2CNC[C@@H](C2)C1 = < 5.00
• CCC(=O)N1C[C@@H]2CNC[C@@H](C2)C1 = < 5.70
• N#Cc1cccc(S(=O)(=O)N2C[C@@H]3CNC[C@@H](C3)C2)c1 = < 5.00
• O=C(c1ccc2ccccc2c1)N1C[C@@H]2CNC[C@@H](C2)C1 = < 5.00
• O=C(c1cccs1)N1C[C@@H]2CNC[C@@H](C2)C1 = < 5.00
• Cc1ccc(C(=O)N2C[C@@H]3CNC[C@@H](C3)C2)cc1 = < 5.00
• O=C(c1ccc([N+](=O)[O-])cc1)N1C[C@@H]2CNC[C@@H](C2)C1 = 5.76
• O=[N+]([O-])c1ccc(S(=O)(=O)N2C[C@@H]3CNC[C@@H](C3)C2)cc1 = < 5.00
• O=C(c1ccc2ncccc2c1)N1C[C@@H]2CNC[C@@H](C2)C1 = < 5.00
• O=C(N1CCC(Cc2ccccc2)CC1)N1C[C@@H]2CNC[C@@H](C2)C1 = < 5.30
• c1ccc(CN2C[C@@H]3CNC[C@@H](C3)C2)cc1 = < 5.30
• COc1ccc(C(=O)N2C[C@@H]3CNC[C@@H](C3)C2)c(OC)c1 = < 5.30
• N#Cc1ccc(S(=O)(=O)N2C[C@@H]3CNC[C@@H](C3)C2)cc1 = < 5.00
